Reference source: ChEMBL document CHEMBL4808180

TEST_DESCRIPTION: AUC (0 to infinity) in Sprague-Dawley rat at 50 mg/kg, po
Format: ADME, organism-based
Set-up: time infinity, route oral, dose 50 mg/kg
TEST_CONDITIONS: in vivo
MEASURE: AUC(0-inf) (ng·h/mL)

1) CCC(C)(C)C(=O)O	33100

----------
TEST_DESCRIPTION: Stability in minipig hepatocytes assessed as unchanged compound at 50 uM measured after 4 hrs
Assay type: ADME, cell-based, Sus scrofa domesticus, Hepatocyte
TEST_CONDITIONS: pig, read-out: Stabilty
MEASURE: remaining at 4 h, 50 µM (%)

1) CCC(C)(C)C(=O)O	86
